- Tested on: 3D7
- assay.notes: qHTS profiling for inhibitors of Plasmodium falciparum proliferation (AID 504749); further: nearly all actives have a fitted effect of over 60% in size
- condition.notes: P. falciparum in erythrocytes, SYBR Green DNA, 72 h; series mostly up to 28.7 µM
Records with an inconclusive call do not appear. Active and inactive are the calls of the source. The call rests on the fitted dose curve; in most records, active means well fitted inhibition curve with a large enough effect; inconclusive means small, poorly fitted or top-dose-only effect; inactive means flat fitted curve, though single readings scatter.
Labels: active, inactive

compound: O=C(Nc1ncc([N+](=O)[O-])s1)c1cccs1
test.system: 3D7
answer.label: inactive

compound: CCN(CC)CCNC(=O)COc1ccc(OC)cc1
test.system: 3D7
answer.label: inactive

compound: CCCc1ncc(C[n+]2ccccc2C)c(N)n1
test.system: 3D7
answer.label: inactive

compound: Oc1ccc(Cl)cc1Cc1cc(Cl)ccc1O
test.system: 3D7
answer.label: inactive

compound: CC(=O)OC[C@H]1O[C@@H](n2ncc(=O)[nH]c2=O)[C@H](OC(C)=O)[C@@H]1OC(C)=O
test.system: 3D7
answer.label: inactive

compound: Oc1ccccc1C=NCc1ccccc1
test.system: 3D7
answer.label: inactive

compound: CC(=O)Nc1ccc(OCC(O)CNC(C)C)cc1 (stereo unspecified)
test.system: 3D7
answer.label: inactive

compound: COc1cc(N)c(Cl)cc1C(=O)NC1CCN(Cc2ccccc2)CC1
test.system: 3D7
answer.label: inactive

compound: COc1cc([C@H]2Oc3cc([C@H]4Oc5cc(O)cc(O)c5C(=O)[C@@H]4O)ccc3O[C@@H]2CO)ccc1O
test.system: 3D7
answer.label: inactive

compound: CC(=O)Nc1ccc(S(=O)(=O)Nc2ccc([N+](=O)[O-])cc2)cc1
test.system: 3D7
answer.label: inactive

compound: Cc1cc(C)cc(OCC2CNC(=O)O2)c1 (stereo unspecified)
test.system: 3D7
answer.label: inactive

compound: COc1cc(NS(=O)(=O)c2ccc(N)cc2)ncn1
test.system: 3D7
answer.label: inactive

compound: Cc1cccc(C)c1NC(=O)CN1CCCCCC1
test.system: 3D7
answer.label: inactive

compound: COc1ccc(/C=N/NC(=O)c2ccncc2)cc1OC
test.system: 3D7
answer.label: inactive

compound: CCOc1cc(OCC)c(C(=O)CCC(=O)O)cc1OCC
test.system: 3D7
answer.label: inactive

compound: NCCNC(=O)c1ccc(Cl)cn1
test.system: 3D7
answer.label: inactive

compound: CCCCc1cc2ccccc2c(OCCN(C)C)n1
test.system: 3D7
answer.label: inactive

compound: Nc1nc(-c2ccccc2)c(Br)c(=O)[nH]1
test.system: 3D7
answer.label: inactive

compound: CCCCC(CC)COC(=O)c1ccc(N(C)C)cc1 (stereo unspecified)
test.system: 3D7
answer.label: inactive

compound: COc1ccc(CN(CCN(C)C)c2ncccn2)cc1
test.system: 3D7
answer.label: inactive

compound: Cc1ccccc1OCC(O)CO (stereo unspecified)
test.system: 3D7
answer.label: inactive

compound: CCOC(=O)c1c(N)sc2c1CCN(Cc1ccccc1)C2
test.system: 3D7
answer.label: active

compound: CC(C)CCCC(C)N (stereo unspecified)
test.system: 3D7
answer.label: inactive

compound: COc1cc(C)nc(-n2nc(C)cc2OC)n1
test.system: 3D7
answer.label: inactive

compound: C#C[C@]1(OC(C)=O)CC[C@H]2[C@@H]3CCC4=C/C(=N/O)CC[C@@H]4[C@H]3CC[C@@]21CC
test.system: 3D7
answer.label: inactive

compound: CC(=O)Nc1ncc([N+](=O)[O-])s1
test.system: 3D7
answer.label: inactive

###

- assay.notes: Cellular Toxicity (caspase-3) HepG2 (AID 654);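 further: cells exposed to compound for 16 hours before reading; 0% = DMSO alone and 100% = caspase signal from 100 µM tamoxifen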
- condition.notes: HepG2 caspase-3 activation, luminescence, 0% = DMSO only, 100% = tamoxifen; series mostly up to 92.2 µM
Calls of active or inactive are those of the source. Calls come from the whole dose curve; as a rule, active = well fitted activation curve with a large enough effect; inconclusive = small, poorly fitted or top-dose-only effect; inactive = flat fitted curve, though single readings scatter.
measure: outcome

compound: CCCN(CCC)S(=O)(=O)c1ccc(C(=O)O)cc1
measure: outcome
observed.measurement: inactive
--
compound: C/C=C/c1ccc(O)c(OC)c1
measure: outcome
observed.measurement: inactive
--
compound: COc1ccc(C(=O)c2ccccc2)c(O)c1
measure: outcome
observed.measurement: inactive
--
compound: C=C[C@H]1CN2CC[C@H]1C[C@@H]2[C@@H](O)c1ccnc2ccc(OC)cc12
measure: outcome
observed.measurement: inactive
--
compound: CCOc1ccccc1C(N)=O
measure: outcome
observed.measurement: inactive
--
compound: COc1cc([C@H]2Oc3cc([C@H]4Oc5cc(O)cc(O)c5C(=O)[C@@H]4O)ccc3O[C@@H]2CO)ccc1O
measure: outcome
observed.measurement: inactive
--
compound: Oc1c(Cl)cc(Cl)c(Cl)c1Cc1c(O)c(Cl)cc(Cl)c1Cl
measure: outcome
observed.measurement: inactive
--
compound: CCCCC(CC)COC(=O)c1ccc(N(C)C)cc1 (stereo not drawn)
measure: outcome
observed.measurement: inactive

###

- System: CP250
- assay.notes: qHTS profiling for inhibitors of Plasmodium falciparum proliferation (AID 504749); further: nearly all actives have a fitted effect of over 60% in size
- condition.notes: P. falciparum in erythrocytes, SYBR Green DNA, 72 h; series mostly up to 28.7 µM
Inconclusive results are not listed. Activity calls are given as the source filed them. Calls follow the shape of the dose curve; as a rule, active = well fitted inhibition curve with a large enough effect; inconclusive = small, poorly fitted or top-dose-only effect; inactive = flat fitted curve, though single readings scatter.
Labels: TRUE (active), FALSE (inactive)

compound: COP(=O)(OC)OC(c1ccc(Cl)cc1)P(=O)(OC)OC (stereo unspecified)
answer.label: FALSE
//
compound: CN1CCc2cccc3c2[C@H]1Cc1ccc(O)c(O)c1-3
answer.label: TRUE
//
compound: O=C(Nc1ncc([N+](=O)[O-])s1)c1cccs1
answer.label: FALSE
//
compound: CCCCCCCCCCCCCCCC(=O)O
answer.label: FALSE
//
compound: C=CCN1CCc2nc(N)sc2CC1
answer.label: FALSE
//
compound: CC1=C(C(=O)O)N2C(=O)[C@@H](NC(=O)[C@H](N)c3ccccc3)[C@H]2SC1
answer.label: FALSE

###

// reported max response for each item listed
- Tested on: KB-3-1
- assay.notes: Cytotoxic Profiling of Annotated Libraries Using Quantitative High-Throughput Screening (AID 1296008); further: on the % scale 0 is the no-effect control and ±100 the full control effect; nearly all actives have a fitted effect of over 60% in size
- condition.notes: Five cell lines viability, CellTiter-Glo ATP luminescence, 48-72 h; stronger effect = lower value
Results filed as inconclusive are left out. Activity calls are given as the source filed them. Calls follow the shape of the dose curve; as a rule, active = well fitted inhibition curve with a large enough effect; inconclusive = small, poorly fitted or top-dose-only effect; inactive = flat fitted curve, though single readings scatter.

compound.string: CCOC(=O)[C@H](CCc1ccccc1)N[C@@H](C)C(=O)N1[C@H](C(=O)O)C[C@@H]2CCC[C@@H]21
test.system: KB-3-1
max response: 3.06% (inactive)
--
compound.string: Cc1c(-c2ccccc2)oc2c(C(=O)OCCN3CCCCC3)cccc2c1=O
test.system: KB-3-1
max response: -3.83% (inactive)
--
compound.string: CC(=O)NCCCCCC(=O)O
test.system: KB-3-1
max response: 0.772% (inactive)
--
compound.string: C[C@]12CCC(=O)C=C1C=C[C@@H]1[C@@H]2CC[C@@]2(C)[C@H]1CC[C@@]21CCC(=O)O1
test.system: KB-3-1
max response: -4.54% (inactive)
--
compound.string: N/C(=N\N=C\c1ccc(Cl)cc1)N/N=C/c1ccc(Cl)cc1
test.system: KB-3-1
max response: 13.1% (inactive)
--
compound.string: Cl/C(=C\n1cncn1)c1ccc(Cl)cc1Cl
test.system: KB-3-1
max response: 25.3% (inactive)

###

- assay.notes: Cell Viability - H-4-II-E (AID 543);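 further: cells exposed to compound for 40 hours; on the % scale 0 is the no-effect control and ±100 the full control effect; nearly all actives have a fitted effect of over 35% in size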
- condition.notes: H-4-II-E rat hepatoma viability; series mostly up to 92.2 µM
Results filed as inconclusive are left out. Calls of active or inactive are those of the source. Calls follow the shape of the dose curve; as a rule, active = well fitted cell-killing curve with a large enough effect; inconclusive = small, poorly fitted or top-dose-only effect; inactive = flat fitted curve, though single readings scatter.

compound.string: O=C(O)c1ccc(S(=O)(=O)N(Cl)Cl)cc1
outcome: inactive
--
compound.string: C=C[C@H]1CN2CC[C@H]1C[C@@H]2[C@@H](O)c1ccnc2ccc(OC)cc12
outcome: inactive
--
compound.string: OC[C@H]1O[C@@H]2O[C@H]3[C@H](O)[C@@H](O)[C@@H](O[C@H]4[C@H](O)[C@@H](O)[C@@H](O[C@H]5[C@H](O)[C@@H](O)[C@@H](O[C@H]6[C@H](O)[C@@H](O)[C@@H](O[C@H]7[C@H](O)[C@@H](O)[C@@H](O[C@H]8[C@H](O)[C@@H](O)[C@@H](O[C@H]1[C@H](O)[C@H]2O)O[C@@H]8CO)O[C@@H]7CO)O[C@@H]6CO)O[C@@H]5CO)O[C@@H]4CO)O[C@@H]3CO
outcome: inactive

###

- Tested on: HEK293
- assay.notes: Cytotoxic Profiling of Annotated Libraries Using Quantitative High-Throughput Screening (AID 1296008); further: on the % scale 0 is the no-effect control and ±100 the full control effect; nearly all actives have a fitted effect of over 60% in size
- condition.notes: Five cell lines viability, CellTiter-Glo ATP luminescence, 48-72 h; stronger effect = lower value
Records with an inconclusive call do not appear.

compound: CN(C)C(=O)Nc1ccc(Cl)c(Cl)c1
test.system: HEK293
max response, %: 3.61
--
compound: CCCCCCCCCCCCCCCC(=O)O
test.system: HEK293
max response, %: -5.26
--
compound: CCCCNC(=O)NS(=O)(=O)c1ccc(N)cc1
test.system: HEK293
max response, %: 2.1
--
compound: CCc1oc2ccccc2c1C(=O)c1cc(Br)c(O)c(Br)c1
test.system: HEK293
max response, %: -23.3
--
compound: O=C(O)P(=O)(O)O
test.system: HEK293
max response, %: 0.892
--
compound: CC(C)(C)NCC(O)COc1cccc2c1C[C@H](O)[C@H](O)C2 (stereo partly specified)
test.system: HEK293
max response, %: -3.77
--
compound: C=C1c2cccc(O)c2C(O)=C2C(=O)[C@]3(O)C(O)=C(C(N)=O)C(=O)[C@@H](N(C)C)[C@@H]3[C@@H](O)[C@H]12
test.system: HEK293
max response, %: -1.35
--
compound: Cc1cc(NS(=O)(=O)c2ccc(N)cc2)nc(C)n1
test.system: HEK293
max response, %: -0.689
--
compound: Nc1ccc(C(=O)NCC(=O)O)cc1
test.system: HEK293
max response, %: 0.145
--
compound: CC(C)(C)NC[C@H](O)COc1nsnc1N1CCOCC1
test.system: HEK293
max response, %: 1.26
--
compound: CN(C)CCN1C(=O)c2ccccc2N(C)c2ccccc21
test.system: HEK293
max response, %: -1.88
